Numbers sourced from the supplement of paper PMC10515830.

# System: Danio rerio larvae (5 dpf)
# experimental-protocol: difference in startle response vs DMSO (percentage points); higher = stronger startle than DMSO
# condition-notes: 10 µM; exposure time 6 h
Structures can show the parent of a compound that is named as a salt.

{"columns": ["compound", "difference in startle response"],
 "data": [
  ["CCCSc1nc(N[C@@H]2C[C@H]2c2ccc(F)c(F)c2)c2nnn([C@@H]3C[C@H](OCCO)[C@@H](O)[C@H]3O)c2n1", 1.19],
  ["OC(CNCC(O)C1CCc2cc(F)ccc2O1)C1CCc2cc(F)ccc2O1 (stereo not drawn) [Nebivolol (hydrochloride)]", -4.14],
  ["COC(=O)N[C@H](C(=O)N1CCC[C@H]1c1nc(-c2ccc3c(c2)O[C@@H](c2ccccc2)n2c-3cc3cc(-c4c[nH]c([C@@H]5CCCN5C(=O)[C@@H](NC(=O)OC)C(C)C)n4)ccc32)c[nH]1)C(C)C", -11.8],
  ["O=C1c2cccc3c2[C@H](CCC3)CN1[C@@H]1CN2CCC1CC2 [Palonosetron (hydrochloride)]", -3.75],
  ["CC(C)NCC(O)COc1ccc(CCOCC2CC2)cc1 (stereo not drawn) [Betaxolol (hydrochloride)]", 2.31],
  ["CCOc1cc([C@@H](CS(C)(=O)=O)N2C(=O)c3cccc(NC(C)=O)c3C2=O)ccc1OC", 3.1],
  ["C/C(=C\\c1csc(C)n1)[C@@H]1C[C@@H]2O[C@]2(C)CCC[C@H](C)[C@H](O)[C@@H](C)C(=O)C(C)(C)[C@@H](O)CC(=O)N1 [Ixabepilone]", -3.45],
  ["C#C[C@]1(O)CC[C@H]2[C@@H]3CCC4=CCCC[C@@H]4[C@H]3C(=C)C[C@@]21CC", -10.3],
  ["CO/N=C(\\C(=O)N[C@@H]1C(=O)N2C(C(=O)O)=C(COC(N)=O)CS[C@H]12)c1ccco1 [Cefuroxime (sodium salt)]", 5.54],
  ["COC(=O)c1ccc2c(c1)NC(=O)/C2=C(\\Nc1ccc(N(C)C(=O)CN2CCN(C)CC2)cc1)c1ccccc1", -5.51],
  ["CC(=O)c1ccc(S(=O)(=O)NC(=O)NC2CCCCC2)cc1 [Acetohexamide]", 2.86],
  ["O=C1C(O)=C([C@H]2CC[C@H](c3ccc(Cl)cc3)CC2)C(=O)c2ccccc21", -0.517],
  ["Nc1[nH]c(=O)ncc1F", 1.12],
  ["CC1CNc2c(cccc2S(=O)(=O)N[C@@H](CCCNC(=N)N)C(=O)N2CC[C@@H](C)C[C@@H]2C(=O)O)C1 (stereo partly drawn)", 2.67],
  ["C#C[C@]1(O)CC[C@H]2[C@@H]3CCc4cc(OC)ccc4[C@H]3CC[C@@]21C", -9.55],
  ["Cc1nc2n(c(=O)c1CCN1CCC(c3noc4cc(F)ccc34)CC1)CCCC2O (stereo not drawn)", 0.117],
  ["COC(=O)C1=C(C)NC(C)=C(C(=O)OC(C)C)C1c1cccc2nonc12 (stereo not drawn)", -10.9],
  ["O=C(c1ccc(OCCN2CCCCC2)cc1)c1c(-c2ccc(O)cc2)sc2cc(O)ccc12 [Raloxifene (hydrochloride)]", -0.808],
  ["Cc1c(-c2ccccc2)oc2c(C(=O)OCCN3CCCCC3)cccc2c1=O [Flavoxate (hydrochloride)]", 1.49],
  ["C/C=C1\\NC(=O)[C@H]2CSSCC/C=C/[C@H](CC(=O)N[C@H](C(C)C)C(=O)N2)OC(=O)[C@H](C(C)C)NC1=O", -0.00342],
  ["O=C(O)CCNC(=O)c1ccc(/N=N/c2ccc(O)c(C(=O)O)c2)cc1 [Balsalazide]", 9.09],
  ["COc1cc2nc(N(C)CCCNC(=O)C3CCCO3)nc(N)c2cc1OC (stereo not drawn) [Alfuzosin (hydrochloride)]", 2.43],
  ["CN(C)C/C=C/C(=O)Nc1cc2c(Nc3ccc(F)c(Cl)c3)ncnc2cc1O[C@H]1CCOC1 [Afatinib (maleate)]", -1.05]
]}
